Below: a set of entries, each annotated with reported TGI.
- Tested on: SNB-78 CNS
- Experimental details: NCI tumour cell line growth inhibition, 48 h
Readout kind: TGI (µM)

Molecule | Units text | Bound type | Recorded number
CC(NC(=O)/C(C#N)=C/c1ccc2[nH]ccc2c1)c1ccccc1 (stereo not given) | µM | = | 90.4
CN(C)CCNC(=O)c1cccc2nc3c4ccccc4c4ccccc4c3nc12 | µM | = | 37.6
NC12CC3CC(C1)CC(Cl)(C3)C2 | µM | > | 100
N#CCC(=O)N/N=C1/C(=O)NC(=O)C(=O)C1c1nc2ccccc2s1 (stereo not given) | µM | > | 100
COc1ccc(/C=C/c2nc(=S)[nH][nH]2)cc1 | µM | > | 100
Cc1nccc2c1cnc1ccnn12 | µM | > | 100
CCOC(OCC)c1ccc(/C=C/c2cc(OC)c(OC)c(OC)c2)cc1 | µM | = | 87.9
CN(C)CCCSc1c2ccccc2nc2cc(NCC(=O)Nc3ccccc3-c3ccccc3NC(=O)CNc3ccc4c(SCCCN(C)C)c5ccccc5nc4c3)ccc12 | µM | > | 100
CCOC(=O)C1=C(O)c2ccccc2C(=O)C1=O | µM | > | 100
COc1cc2ccc1-c1cc(ccc1O)CC1c3cc4c(cc3CCN1C)Oc1c(OC)cc3c(c1O4)C(C2)N(C)CC3 (stereo not given) | µM | = | 5.23
